Values compiled from patent US11767323B2.

Molecular target: catalytic domain (JH1, amino acids 808-1132) of human JAK2 (Homo sapiens (Human), UniProt O60674)
Sequence (O60674 808-1132): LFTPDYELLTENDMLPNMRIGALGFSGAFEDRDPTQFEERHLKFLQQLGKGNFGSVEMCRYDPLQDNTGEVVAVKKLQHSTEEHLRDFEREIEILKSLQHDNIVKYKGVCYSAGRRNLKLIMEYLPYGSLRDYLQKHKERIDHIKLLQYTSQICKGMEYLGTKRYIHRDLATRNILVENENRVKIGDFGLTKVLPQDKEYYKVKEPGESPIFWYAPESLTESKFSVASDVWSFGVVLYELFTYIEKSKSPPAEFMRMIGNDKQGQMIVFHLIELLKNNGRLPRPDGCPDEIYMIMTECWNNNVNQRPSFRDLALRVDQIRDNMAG
Assay: JAK2 HTRF Enzyme Activity Assay
Conditions: JAK2 0.015 nM, ATP (30 μM or 1 mM), 60 minutes at 25° C.
pIC50: −log10 of the molar value.
# Lookup of reported pIC50 keyed by entry

A selection of reference data follows.
Cc1cc(-c2c(C3CCOCC3)c3c4cc(-c5ccc(CN6CCC(S(C)(=O)=O)CC6)cc5)[nH]c4ncc3n(C)c2=O)on1 : 6.30 to 7.00
CCc1c(-c2ccc(C(=O)O)cc2)c(=O)n(C)c2cnc3[nH]c(-c4ccc(CN5CCC(S(C)(=O)=O)CC5)cc4)cc3c12 : 6.30 to 7.00
CS(=O)(=O)C1CCN(Cc2ccc(-c3cc4c(ncc5[nH]c(=O)c(-c6nnn[nH]6)cc54)[nH]3)cc2)CC1 : 5.00 to 6.00

Entry under test: `CN(C)C(=O)c1ccc(-c2c(-c3cnn(C)c3)[nH]c3ncc4c(cc(N5CCC(S(C)(=O)=O)CC5)c(=O)n4C)c23)cc1` . Its pIC50 was 6.30 to 7.00

Entry under test: `Cc1cc(-c2c(-c3ccc(C(=O)NCCO)cc3)c3c4cc(-c5cnn(C)c5)[nH]c4ncc3n(C)c2=O)on1` . Its pIC50 was 6.30 to 7.00

Entry under test: Cc1cc(-c2c(-c3ccc(CNC4CCCOC4)cc3)c3c4cc(-c5cnn(C)c5)[nH]c4ncc3n(C)c2=O)on1 (stereo not drawn) . Its pIC50 was 6.30 to 7.00
